# credit: ChEMBL document CHEMBL4376827

Provide the reported Activity of each item.
Tested on: THP-1
Assay: Cytotoxicity against human THP1 cells assessed as reduction in cell viability at 5 uM incubated for 18 hrs by MTT assay relative to control
Settings: thp-1, 18 h
Give bare numbers, in %.

Some solved entries appear below for comparison.
[
  {
    "chemicalStructure": "CCOc1ccc(S(=O)(=O)Nc2ccc(Cl)cc2OC)cc1",
    "targetOrTestSystem": "THP-1",
    "measureUnit": "%",
    "Activity": 78.3
  },
  {
    "chemicalStructure": "C#CCOc1ccc(S(=O)(=O)Nc2cc(OC)c(Cl)cc2OC)cc1",
    "targetOrTestSystem": "THP-1",
    "measureUnit": "%",
    "Activity": 80.9
  },
  {
    "chemicalStructure": "C#CCCN(c1cc(OC)c(Cl)cc1OC)S(=O)(=O)c1ccc(OCC)cc1",
    "targetOrTestSystem": "THP-1",
    "measureUnit": "%",
    "Activity": 70.1
  },
  {
    "chemicalStructure": "CCOc1ccc(S(=O)(=O)N(CCCNC(=O)OC(C)(C)C)c2cc(OC)c(Cl)cc2OC)cc1",
    "targetOrTestSystem": "THP-1",
    "measureUnit": "%",
    "Activity": 75.6
  },
  {
    "chemicalStructure": "CCOc1ccc(S(=O)(=O)N(CCCNC(=O)CCCC[C@H]2SC[C@H]3NC(=O)N[C@H]32)c2cc(OC)c(N=[N+]=[N-])cc2OC)cc1",
    "targetOrTestSystem": "THP-1",
    "measureUnit": "%",
    "Activity": 73.8
  }
]

Record Activity for all entries; do not skip any.
1. C#CCN(c1cc(OC)c(N=[N+]=[N-])cc1OC)S(=O)(=O)c1ccc(OCC)cc1
2. COc1cc(NS(=O)(=O)c2ccc(OC)c(Br)c2)c(OC)cc1Cl
3. CCOc1ccc(S(=O)(=O)Nc2cc(OC)c(N)cc2OC)cc1
4. COc1cc(NS(=O)(=O)c2ccc(CNC(=O)OC(C)(C)C)cc2)c(OC)cc1Cl
5. CCOc1ccc(S(=O)(=O)Nc2cc(OC)ccc2OC)cc1

Result:
73.4
85
92.2
109.2
73.1

For each of the compounds below, note its Activity.
1. COc1ccc(S(=O)(=O)Nc2cc(OC)c(Cl)cc2OC)cc1N
2. CCNC(=O)CCCN(c1cc(OC)c(Cl)cc1OC)S(=O)(=O)c1ccc(OCC)cc1
3. CCOc1ccc(S(=O)(=O)N(CCCO)c2cc(OC)c(Cl)cc2OC)cc1
4. CCOc1ccc(S(=O)(=O)Nc2ccc(Cl)c(OC)c2)cc1
5. CCCCCCCN(c1cc(OC)c(Cl)cc1OC)S(=O)(=O)c1ccc(OCC)cc1
6. CCCc1ccc(S(=O)(=O)Nc2cc(OC)c(Cl)cc2OC)cc1

Result:
77.3
78.2
68.5
83.7
90.4
85.7
